# Assay method text: chemical genetic growth profiling, strain panel (AID 1159580);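 also: tested at 20 µM; growth read once vehicle control cultures reached saturation at 30 °C; 1 = growth at the plate median or of vehicle wells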
# Run conditions: S. cerevisiae deletion strains, growth OD, locus YNL128W, strain TEP1
The whole screen tested about 5,500 compounds, of which about 2,000 (36%) were called active. Another 18% or so got no clear call; they are omitted. Rule as the data show it: active = normalized growth mostly below about 0.91 (no sharp cut-off); inconclusive = no clear call, values can overlap the other calls; inactive = mostly above about 0.92. The list shows a part of the results.
Pick one and only one: active, inactive

In: Which result was noted for this compound in the test: `COc1ccc2c3c1O[C@H]1C[C@@H](O)C=C[C@@]31CCN(C)C2`
Out: inactive

In: Which result was noted for this compound in the test: `CNCCc1ccc(O)c(O)c1`
Out: inactive

In: Which result was noted for this compound in the test: C[C@H]1OC(n2cc(F)c(=O)[nH]c2=O)C(O)[C@@H]1O (stereo partly drawn)
Out: inactive

In: Which result was noted for this compound in the test: `CC(=O)NCCc1ccc(O)c(O)c1`
Out: inactive

In: Which result was noted for this compound in the test: C[C@]12CC(=O)C3C(CC[C@@H]4C[C@H](O)CC[C@]34C)C1CC[C@]2(O)C(=O)CO (stereo partly drawn)
Out: inactive

In: Which result was noted for this compound in the test: CCCCCCCCNC(C)C(O)c1ccc(SC(C)C)cc1 (stereo not drawn)
Out: active

In: Which result was noted for this compound in the test: `O=C(O)c1nn(Cc2ccc(Cl)cc2Cl)c2ccccc12`
Out: inactive

In: Which result was noted for this compound in the test: CCS(=O)CCSP(=O)(OC)OC (stereo not drawn)
Out: inactive

In: Which result was noted for this compound in the test: Oc1ccc(C2CNCCc3c2cc(O)c(O)c3Cl)cc1 (stereo not drawn)
Out: inactive

In: Which result was noted for this compound in the test: C=CCN1CCc2cc(O)c(O)cc2C(c2ccccc2)C1 (stereo not drawn)
Out: inactive

In: Which result was noted for this compound in the test: CC(NCCc1ccc(O)cc1)C(O)c1ccc(O)cc1 (stereo not drawn)
Out: inactive

In: Which result was noted for this compound in the test: `CCCCNc1cc(C(=O)O)cc(S(N)(=O)=O)c1Oc1ccccc1`
Out: inactive

In: Which result was noted for this compound in the test: `Ic1ccc(I)s1`
Out: inactive

* * *

# Assay method text: chemical genetic growth profiling, strain panel (AID 1159580)
# Run conditions: S. cerevisiae deletion strains, growth OD, locus YFL009W, strain cdc4, stronger effect = lower value
The whole screen tested about 5,500 compounds, of which about 2,000 (36%) were called active. Not shown: some 18% with an inconclusive outcome. Some of the results follow.
Record form. Attribute: normalized growth. Fill in for each entry.
Form: value (number only, do not type unit).

In: Please look up its normalized growth: CSC1=NNC(c2nn(C)cc2Cl)S1 (stereo unspecified)
Out: 0.282

In: Please look up its normalized growth: `N#Cc1ccc(S(=O)(=O)Nc2ccccc2Oc2ccc(Cl)cc2Cl)cc1`
Out: 0.987

In: Please look up its normalized growth: CS(=NC(=O)c1cccc(Cl)c1)c1ccc(OC(=O)c2ccc(Cl)cc2)cc1 (stereo unspecified)
Out: 0.966

In: Please look up its normalized growth: `COc1ccc(NNC(=O)c2sc3ccccc3c2Cl)cc1`
Out: 0.941

In: Please look up its normalized growth: `N#CC(C#N)=C(SCc1c(Cl)cccc1Cl)SCc1c(Cl)cccc1Cl`
Out: 0.981

In: Please look up its normalized growth: `COc1cc(NC(=S)NC(=O)c2ccccc2)c(OC)cc1Cl`
Out: 0.994

In: Please look up its normalized growth: `CC(=O)CSc1nnc(-c2ccc(C(C)(C)C)cc2)n1-c1ccc(Cl)cc1`
Out: 0.977

In: Please look up its normalized growth: `Cc1nn(Cc2cccc(C(=O)Nc3ccc(Cl)cc3)c2)c(C)c1Br`
Out: 0.978

In: Please look up its normalized growth: `COc1cc(NC(=S)NNS(=O)(=O)c2ccc(C)cc2)c(OC)cc1Cl`
Out: 0.982

In: Please look up its normalized growth: `Nc1ccccc1SCc1c(Cl)cccc1Cl`
Out: 0.946

In: Please look up its normalized growth: `Cc1ccccc1C(=O)Oc1ccc(C(F)(F)F)cc1[N+](=O)[O-]`
Out: 0.96

* * *

# Assay method text: chemical genetic growth profiling, strain panel (AID 1159580);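 also: tested at 20 µM; growth read once vehicle control cultures reached saturation at 30 °C; 1 = growth at the plate median or of vehicle wells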
# Run conditions: S. cerevisiae deletion strains, growth OD, locus YJR043C, strain POL32, stronger effect = lower value
In all, about 5,500 compounds went through this assay and about 2,000 (36%) were called active. Roughly 18% stayed inconclusive and do not appear here. This is one part of the list.
Record form. Attribute: normalized growth. Fill in for each entry.
Form: value (number only, do not type unit).

In: Please look up its normalized growth: `COc1ccc2cc([C@H](C)CO)ccc2c1`
Out: 0.994

In: Please look up its normalized growth: `O=C1c2cccc3cc([N+](=O)[O-])cc(c23)C(=O)N1CCO`
Out: 0.995

In: Please look up its normalized growth: Cc1cccc(C)c1NC(=O)C(C)Oc1ccc(Cl)cc1Cl (stereo unspecified)
Out: 1

In: Please look up its normalized growth: COc1ccc(OC)c(C(O)C(C)N)c1 (stereo unspecified)
Out: 0.977

In: Please look up its normalized growth: `CC(=O)N[C@@H](CC(C)C)C(=O)O`
Out: 1.02

In: Please look up its normalized growth: CC(C(=O)O)c1cccc(C(=O)c2ccccc2)c1 (stereo unspecified)
Out: 1.03

In: Please look up its normalized growth: CC(C(=O)O)c1ccc(-c2ccccc2)c(F)c1 (stereo unspecified)
Out: 0.979

In: Please look up its normalized growth: `N#CCOc1ccc(Cl)cc1Cl`
Out: 0.975

In: Please look up its normalized growth: CC(=O)NC1SCCC1=O (stereo unspecified)
Out: 1

In: Please look up its normalized growth: CCC(C)C(=O)O[C@H]1[C@H](O)C2C(CN3CC(C)CCC3[C@@]2(C)O)C2C[C@]34O[C@]5(O)C(OC(=O)C(C)(O)C(C)O)CC[C@@]3(C)C5C(OC(C)=O)[C@@H](OC(C)=O)C4[C@@]21O (stereo partly specified)
Out: 0.984

In: Please look up its normalized growth: CC1(C)C(C=C(Cl)Cl)C1C(=O)OC(C#N)c1cccc(Oc2ccccc2)c1 (stereo unspecified)
Out: 0.987

* * *

# Assay method text: chemical genetic growth profiling, strain panel (AID 1159580);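 also: tested at 20 µM; growth read once vehicle control cultures reached saturation at 30 °C; 1 = growth at the plate median or of vehicle wells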
# Run conditions: S. cerevisiae deletion strains, growth OD, locus YJL095W, strain BCK1 (second series)
Screen size: about 5,500 compounds; about 2,000 (36%) were called active. Not shown: some 18% with an inconclusive outcome. No stated cut-off is given here; in the data, active means normalized growth mostly below about 0.91 (no sharp cut-off); inconclusive means no clear call, values can overlap the other calls; inactive means mostly above about 0.92. Some of the results follow.
Pick one and only one: true (active), false (inactive)

In: Which result was noted for this compound in the test: `CN(C)CC/C=C1\c2ccccc2Sc2ccc(Cl)cc21`
Out: true

In: Which result was noted for this compound in the test: `COc1ccc2c(c1)OCc1c-2oc2cc(OC)ccc12`
Out: true

In: Which result was noted for this compound in the test: `NCCSSCCN`
Out: false

In: Which result was noted for this compound in the test: CC(N)C(=O)OC(C)(C)Cc1ccc(Cl)cc1 (stereo not drawn)
Out: false

In: Which result was noted for this compound in the test: `COc1ccc2c(C)cc(=O)oc2c1`
Out: false

In: Which result was noted for this compound in the test: `O=C(O)c1cc2ccccc2[nH]1`
Out: false

In: Which result was noted for this compound in the test: CC(=O)NC1SCCC1=O (stereo not drawn)
Out: false

In: Which result was noted for this compound in the test: CO[C@H]1[C@H](O)[C@H](O[C@H]2CC[C@]3(C)C4CC[C@]5(C)C(C6=CC(=O)OC6)CC[C@]5(O)C4CC[C@@H]3C2)O[C@@H](C)[C@@H]1O (stereo partly drawn)
Out: false

In: Which result was noted for this compound in the test: `CC(=O)OC(C)(C)[C@@H]1Cc2cc3ccc(=O)oc3cc2O1`
Out: false

In: Which result was noted for this compound in the test: `COP(=O)(OC)OC=C(Cl)Cl`
Out: false

In: Which result was noted for this compound in the test: `CC(C)OC(=O)C(C)(C)Oc1ccc(C(=O)c2ccc(Cl)cc2)cc1`
Out: false

In: Which result was noted for this compound in the test: `CCOC(=O)[C@H](CCc1ccccc1)N[C@H]1CCc2ccccc2N(CC(=O)O)C1=O`
Out: false

In: Which result was noted for this compound in the test: `COc1ccc2c(c1OC)C(=O)O[C@@H]2[C@H]1c2cc3c(cc2CCN1C)OCO3`
Out: false

* * *

# Assay method text: chemical genetic growth profiling, strain panel (AID 1159580);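 also: tested at 20 µM; growth read once vehicle control cultures reached saturation at 30 °C; 1 = growth at the plate median or of vehicle wells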
# Run conditions: S. cerevisiae deletion strains, growth OD, locus YOR231W, strain MKK1, stronger effect = lower value
The campaign covered roughly 5,500 compounds. About 2,000 (36%) were called active. About 18% were inconclusive and are not listed. This is one part of the list.
Record form. Attribute: normalized growth. Fill in for each entry.
Form: value (number only, do not type unit).

In: Please look up its normalized growth: `COc1cc2c(cc1OC)Cc1cc(OC)c(OC)cc1Cc1cc(OC)c(OC)cc1C2`
Out: 1.04

In: Please look up its normalized growth: `COc1cc2c(cc1OC)C(=O)OC2`
Out: 0.991

In: Please look up its normalized growth: CC(=O)OCC(=O)[C@@]1(O)[C@@H](C)CC2C3CCC4=CC(=O)C=C[C@]4(C)[C@@]3(F)[C@@H](O)C[C@@]21C (stereo partly drawn)
Out: 1.05
